Entry source: patent US20200270309A1

Consider the following compounds; for each one, report its Swelling degree 3 h.
test system: carrageenan-induced toe swelling; test: Carrageenan-induced toe swelling in rats; assay type: in vivo; conditions: SD rats, 4.0 mg/kg once a day for 3 d, 3 h after carrageenan
Peptide text beside a SMILES is read from it. * marks the point of attachment. X54 = O=C1C=CC(=O)N1c1cccc(CCCCCCC(=O)*)c1; X61 = O=C1C=CC(=O)N1c1cccc(CCCC(=O)*)c1
Answers are plain numbers, in mg.

C[C@H](NC(=O)CNC(=O)[C@H](CCCNC(=N)N)NC(=O)CCCCCCc1cccc(N2C(=O)C=CC2=O)c1)C(=O)N[C@@H](CC(=O)O)C(=O)N[C@@H](CCCNC(=N)N)C(=O)N[C@@H](C)C(=O)NCC(=O)NCC(=O)NCC(=O)NCC(=O)N[C@@H](CCCNC(=N)N)C(=O)NCC(=O)N[C@@H](CC(=O)O)C(=O)O [X30] (X54-RGADRAGGGGRGD-OH) | 0.33

Okay, next one:
Task: GET /values?readout=Swelling degree 3 h&item= C[C@H](NC(=O)CNC(=O)[C@H](CCCNC(=N)N)NC(=O)CCCc1cccc(N2C(=O)C=CC2=O)c1)C(=O)N[C@@H](CC(=O)O)C(=O)N[C@@H](CCCNC(=N)N)C(=O)N[C@@H](C)C(=O)NCC(=O)NCC(=O)NCC(=O)NCC(=O)N[C@@H](CCCNC(=N)N)C(=O)NCC(=O)N[C@@H](CC(=O)O)C(=O)O [X27] (X61-RGADRAGGGGRGD-OH)
Output: 0.33

---

Kindly state half-life for each of the entries shown.
assay: Half-lives and pharmacokinetic parameters of polypeptides vs HM-1; details: in vivo, T1/2β (half-life)
Peptide text beside a SMILES is read from it. * marks the point of attachment. X60 = O=C1C=CC(=O)N1c1ccccc1CCCCCCCCCC(=O)*; X6 = O=C1C=CC(=O)N1CCOCCOCCOCCCCCCCC(=O)*; X78 = O=C1C=CC(=O)N1c1ccc(CCCC(=O)*)cc1
Answers are plain numbers, in h.

C[C@H](NC(=O)CNC(=O)[C@H](CCCNC(=N)N)NC(=O)CCCc1ccc(N2C(=O)C=CC2=O)cc1)C(=O)N[C@@H](CC(=O)O)C(=O)N[C@@H](CCCNC(=N)N)C(=O)N[C@@H](C)C(=O)NCC(=O)NCC(=O)NCC(=O)NCC(=O)N[C@@H](CCCNC(=N)N)C(=O)NCC(=O)N[C@@H](CC(=O)O)C(=O)O [X39] (X78-RGADRAGGGGRGD-OH) | 40.7
C[C@H](NC(=O)CNC(=O)[C@H](CCCNC(=N)N)NC(=O)CCCCCCCOCCOCCOCCN1C(=O)C=CC1=O)C(=O)N[C@@H](CC(=O)O)C(=O)N[C@@H](CCCNC(=N)N)C(=O)N[C@@H](C)C(=O)NCC(=O)NCC(=O)NCC(=O)NCC(=O)N[C@@H](CCCNC(=N)N)C(=O)NCC(=O)N[C@@H](CC(=O)O)C(=O)O [X69] (X6-RGADRAGGGGRGD-OH) | 33.4

Switching to the query record.
Task: half-life for C[C@H](NC(=O)CNC(=O)[C@H](CCCNC(=N)N)NC(=O)CCCCCCCCCc1ccccc1N1C(=O)C=CC1=O)C(=O)N[C@@H](CC(=O)O)C(=O)N[C@@H](CCCNC(=N)N)C(=O)N[C@@H](C)C(=O)NCC(=O)NCC(=O)NCC(=O)NCC(=O)N[C@@H](CCCNC(=N)N)C(=O)NCC(=O)N[C@@H](CC(=O)O)C(=O)O [X21] (X60-RGADRAGGGGRGD-OH) ?
Output: 42.2
